ASSAYED SYSTEM: T1, recombinant human twin strep-tagged ROR2 extracellular domain (human, UniProt Q01974 34-403)
T1 construct: extracellular domain; Made in HEK293T, Streptactin purified; also called Human ROR2-TwinStrep; human ROR2
ASSAY METHOD TEXT: ELISA, IgG titrated on coated twin-strep human ROR2 ECD; fit printed as IC50

- BINDER: "ERR2-Top35 (mAb130) (antibody, V domains shown) VH: QSVKESEGGLFKPMDTLTLTCTVSGFSLNTYGVSWVRQAPGNGLEWIGAVGSSGATNYASWAKSRSTITRNTNENTVTLKMTSLTAADTATYFCARDGYYSSGWGPYFSIWGPGTLVTVSS VL: SFVLTQPASVQVNLGQTVSLTCTAETLRSSYASWYQQKPGQAPVLLIYRDTSRPSGVPDRFSGSSSGNTATLTISGAQAGDEADYYCATSDGSGSRYYVFGGGTQLTVTG"
  RESULT UNITS: "µg/mL"
  IC50: 0.0462
- BINDER: "ERR2-308 (mAb037) (antibody, human IgG1, V domains shown, Full-length chimeric rabbit/human IgG1, human IgH-gamma1 and IgL-kappa constant regions; C-terminal tags HC: LPETG-Strep, LC: G5SLPETG-Strep) VH: QEQLEESGGRLVTPGTPLTLTCAVSGFSLSNYAMGWVRQAPGEGLEYIGWISAGGGAYYASWVNGRFTISKTSSTVDLKMTSLTAADTATYFCARGASNGCDLWGPGTLVTVSS VL: DPMLTQTPSSVSAVVGGTVTIKCQASQSITSWLSWYQQKPGQPPKLLIYGASHLASGVPSRFKGSGYGTEFTLTISGIQREDAATYYCLGGYSNSDIVFGGGTELEIL"
  RESULT UNITS: "µg/mL"
  IC50: 0.0186
- BINDER: "XBR2-327 (mAb007) (antibody, human IgG1, V domains shown, Full-length chimeric rabbit/human IgG1, human IgH-gamma1 and IgL-kappa constant regions; C-terminal tags HC: LPETG-Strep, LC: G5SLPETG-Strep) VH: QEQLKESGGGLFKPTDTLTLTCTVSGFSLSSGAISWVRQAPGNGLEYIGFVNSLGNTYYANWAKSRSAITRNTNENTVTLKMTSLAAADTATYFCAKDYGNWAFDPWGPGTLVTVSS VL: DPVLTQTPSSVSAAVGGTVAINCQASQSISSYLSWYQQKPGQPPKLLIYGASKLASGVPSRFSGSGSGTEYTLTISGVQREDAATYYCLGGYASASYRTAFGGGTKLEIK"
  RESULT UNITS: "µg/mL"
  IC50: 0.00057
